The values you see were collected from ChEMBL document CHEMBL5674860.

Tested on: Colon cancer organoid
Test: Optimized Dual-Glo assay to identify co-culture induced drug vulnerabilities using donated chemical probes and chemogenomics kinase set in O06 CRC organoid and F06 CAF mono and co-culture. […] Cell viability is reported both mono and co-culture models.
Assay type: functional, Homo sapiens
Set-up: dose or concentration left out as unconfirmed
Details: Culture type Mono-Culture; Transduced with Renilla-dsRed lentivirus
Some compounds, each annotated with its measured Cell Viability.
Only the number, expressed in %, is required.

Field: example entries. Status: answers known.
• CCCOc1ccn2c(C(C)=O)cc(-c3ccccc3S(C)(=O)=O)c2c1 = 130.382
• CC(C)(C)c1cc(NC(=O)Nc2ccc(-c3cn4c(n3)sc3cc(OCCN5CCOCC5)ccc34)cc2)no1 = 88.706
• CC(=O)C1=C(C)N(c2cccc(C(F)(F)F)c2)C(=O)N[C@H]1c1ccc(C#N)nc1 = 105.031
• Cc1cc(NC(=O)c2cccc(S(F)(F)(F)(F)F)c2)cc(-n2ccn3nc(-c4cccnc4)cc23)c1 = 77.7093
• COc1cc2ncn(-c3cc(OCc4ccccc4C(F)(F)F)c(C(N)=O)s3)c2cc1OC [GW843682X] = 121.646
• CCOCCn1cc(C(=O)Nc2ccc(-n3nc(-c4cccnc4)cc3C(F)(F)F)cn2)ccc1=O = 105.749

Which Cell Viability is listed for COCCN1CCC(c2cc(CN(C)C(=O)c3cccc(Oc4ccccc4)c3)ccn2)CC1 ?
124.805

Try this compound too: Cc1ccccc1Oc1cc(-n2c(=O)cc(C(F)(F)F)[nH]c2=O)c2ccccc2c1Cl
111.149

----------
System: Colon cancer organoid
Test: Optimized Dual-Glo assay to identify co-culture induced drug vulnerabilities using donated chemical probes and chemogenomics kinase set in O06 CRC organoid and F06 CAF mono and co-culture. […] Cell viability is reported both mono and co-culture models.
Format: functional, Homo sapiens
Parameters: dose or concentration left out as unconfirmed
Details: Culture type Co-Culture; Transduced with Renilla-dsRed lentivirus
Some molecules, each annotated with its measured Cell Viability.
Only the number, expressed in %, is required.

• CN1CCN(c2cnc3c(C4CCN(C(=O)c5ccc(OC(F)(F)F)cc5N)CC4)ncnc3c2)CC1 [BAY-885] = 132.533

Which Cell Viability is listed for COc1ccc(CCc2nc3cc(-c4c(C)noc4C)ccc3n2C[C@H](C)N2CCOCC2)cc1Cl ?
97.126

Try this molecule too: O=C(O)c1ccc(-c2c[nH]c3ncc(-c4ccccc4)cc23)cc1C1CCCC1 [GSK-650394]
125.274

Try this molecule too: Cc1cnc(Nc2ccc(F)cc2Cl)nc1-c1c[nH]c(C(=O)N[C@H](CO)c2cccc(Cl)c2)c1
63.6391

----------
Test system: Colon cancer organoid
Experiment: Optimized Dual-Glo assay to identify co-culture induced drug vulnerabilities using donated chemical probes and chemogenomics kinase set in O14 CRC organoid and F14 CAF mono and co-culture. […] Cell viability is reported both mono and co-culture models.
Type: functional, Homo sapiens
Parameters: dose or concentration left out as unconfirmed
Conditions: Culture type Mono-Culture; Transduced with Renilla-dsRed lentivirus
QUANTITY_NAME: Cell Viability (%)
Only the number, expressed in %, is required.

• COc1cc2c(cc1OCCCN1CCCC1)N=C(N)C21CCC1 = 57.8128

Which Cell Viability is listed for O=C(c1ccc(F)c(F)c1Nc1ccc(I)cc1F)N1CC(O)([C@@H]2CCCCN2)C1 ?
12.612

Try this molecule too: CN(C(=O)c1ccccc1)c1cc(N(C)c2ccc3c(c2)CCc2ccc(C(=O)NCCN4CCOCC4)cc2C3=O)ccc1F
98.7995

Try this molecule too: Cc1cc2c(cc1N1C(=O)c3cccc4c(CCCO)ccc(c34)C1=O)n(C)c(=O)n2C
101.303

Try this molecule too: Cc1cc(CN)cc(C)c1-c1ncn(C)c1-c1ccnc2cc(F)ccc12.Cl
97.8671

Try this molecule too: C=CC(=O)Nc1ccc2[nH]c(=O)n(C3CCN(Cc4ccc(-c5nc6cc[nH]c(=O)c6cc5-c5ccccc5)cc4)CC3)c2c1
69.4418

Try this molecule too: O=C(NCC(=O)N1CCCC1)Nc1ccc2cnccc2c1
109.537

Try this molecule too: COc1ccc(Oc2cc(NCCC(F)(F)F)c3ncc(-c4ccc(C(=O)NC5CC5)c(C)c4)n3n2)c(F)c1F
88.2574

Try this molecule too: C[C@@H](NC(=O)Nc1cc2[nH]ncc2c(CO)n1)c1ccccc1
66.9878

Try this molecule too: CN([C@@H]1CCc2c(CC(=O)O)c3cc(S(C)(=O)=O)ccc3n2C1)S(=O)(=O)c1ccc(F)cc1 [CRTH2-negative-control]
97.6178

Try this molecule too: N#CC1(c2ccccn2)CCN(Cc2cc(C(=O)O)c(=O)n3ccccc23)CC1
98.779

Try this molecule too: O=C(N1CCS(=O)(=O)CC1)N1C[C@H](c2ccc(OC(F)(F)F)cc2)C[C@H](c2nc(C3CC3)no2)C1
98.6833

Try this molecule too: CC1=CC(C)=[N+]2C1=C(CCCCc1cn(CC(=O)N3CCc4nc(NC(=O)[C@H]5CCN(C#N)C5)sc4C3)nn1)c1c(C)cc(C)n1[B-]2(F)F
90.2828

Try this molecule too: Cc1ncsc1-c1ccc(CNC(=O)[C@@H]2C[C@@H](O)CN2C(=O)[C@@H](NC(=O)CCCCNC(=O)c2ccc(-c3ccc(N4CCN(C)CC4)c(NC(=O)c4c[nH]c(=O)cc4C(F)(F)F)c3)cc2)C(C)(C)C)cc1
93.3904

Try this molecule too: Cn1cnc2c(F)c(Nc3ccc(Br)cc3Cl)c(C(=O)NOCCO)cc21
76.2393

Try this molecule too: Cn1nc(C(=O)NCc2ccc(C(=O)O)cc2)cc1-c1ccc2[nH]ccc2c1
91.6294

Try this molecule too: O=C(/C=C/N1C[C@H]2C[C@@H]1CN2c1ccccn1)c1ccccc1O
104.591
